Biological target: T1, recombinant Plasmodium falciparum circumsporozoite protein (CSP) (Plasmodium falciparum, UniProt Q7K740 21-375)
T1 construct: also called recombinant CSP
T1 sequence (Q7K740 21-375 limits assumed): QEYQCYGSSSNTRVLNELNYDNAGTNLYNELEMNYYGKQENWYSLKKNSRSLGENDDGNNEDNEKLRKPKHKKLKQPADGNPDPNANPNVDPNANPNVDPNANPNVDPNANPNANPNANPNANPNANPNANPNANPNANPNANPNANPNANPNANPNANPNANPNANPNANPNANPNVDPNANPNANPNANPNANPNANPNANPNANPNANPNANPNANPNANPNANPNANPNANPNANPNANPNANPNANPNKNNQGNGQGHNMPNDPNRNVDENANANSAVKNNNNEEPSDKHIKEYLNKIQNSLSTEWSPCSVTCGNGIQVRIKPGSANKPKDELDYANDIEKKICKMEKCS
Test: SPR, recombinant CSP

{"BINDER": "AB-000231 (antibody, V domains shown) VH: QVHLVESGGGVVQPGRSLRLSCAASGFTFRNYGIHWVRQAPGKGLEWVAVIWYDGSREFYADSVEGRFTVSRDNSKNTVFLQMNSLRVDDTAVYYCARAGYSDTSGYGDHWGQGTLVSVSS VL: QSVLTQPPSVSGAPGQRVTISCTGGSSNIGAGYDVHWYQQLPGTAPKLLISHNNNRPSGVPDRFSGSKSGTSASLVIAGLQAEDEADYYCQSYDRRLSSSWVFGGGTRLTVLS", "kon [M⁻¹ s⁻¹]": "4.34e+06"}
{"BINDER": "AB001387 (antibody, V domains shown) VH: QVQLVESGGGVVQPGRSLRLSCAASGFTFSNYGMHWVRQAPGKGLEWVAVIWYDGSNKFYADSVKGRFTSSRDNSKNTLYLQMNSLRAEDTAVYYCARDGRFLTTVTTAYFDYWGQGTLVTVSS VL: QSVLTQPPSVSGAPGQRVTISCTGSSSNIGAGYDVHWYQQLPGTAPKLLIYGNSNRPSGVPDRFSGSKSGTSASLAITGLQAEDEADYYCQSYDSSLSALVFGGGTKLTVL", "kon [M⁻¹ s⁻¹]": "1.65e+06"}
{"BINDER": "AB001480 (antibody, V domains shown) VH: QVQLVESGGGVVQPGRSLRLSCAASGFTFSFYGMHWVRQAPGKGLEWVAVIWYDGSNKYYADSVRGRFTISRDNSKNTLYLQMNSLRAEDTAVYYCARVGNDYDDHGSALDMWGQGTMVTVSS VL: DIQMTQSPSTLSASVGDRVTITCRASQSISSWLAWYQQKPGKAPKLLIYRASSLESGVPPRFSGSGSGTEFTLTISSLQPDDFGIYYCQQYNSRWTFGQGTKVEIK", "kon [M⁻¹ s⁻¹]": 561000}
